Entries and their measured conversion of 0708-30 by PAD4, 50 µM inhibitor follow.
# assayed_target: recombinant human PAD4 (human, UniProt Q9UM07 1-663)
# Sequence (Q9UM07 whole entry): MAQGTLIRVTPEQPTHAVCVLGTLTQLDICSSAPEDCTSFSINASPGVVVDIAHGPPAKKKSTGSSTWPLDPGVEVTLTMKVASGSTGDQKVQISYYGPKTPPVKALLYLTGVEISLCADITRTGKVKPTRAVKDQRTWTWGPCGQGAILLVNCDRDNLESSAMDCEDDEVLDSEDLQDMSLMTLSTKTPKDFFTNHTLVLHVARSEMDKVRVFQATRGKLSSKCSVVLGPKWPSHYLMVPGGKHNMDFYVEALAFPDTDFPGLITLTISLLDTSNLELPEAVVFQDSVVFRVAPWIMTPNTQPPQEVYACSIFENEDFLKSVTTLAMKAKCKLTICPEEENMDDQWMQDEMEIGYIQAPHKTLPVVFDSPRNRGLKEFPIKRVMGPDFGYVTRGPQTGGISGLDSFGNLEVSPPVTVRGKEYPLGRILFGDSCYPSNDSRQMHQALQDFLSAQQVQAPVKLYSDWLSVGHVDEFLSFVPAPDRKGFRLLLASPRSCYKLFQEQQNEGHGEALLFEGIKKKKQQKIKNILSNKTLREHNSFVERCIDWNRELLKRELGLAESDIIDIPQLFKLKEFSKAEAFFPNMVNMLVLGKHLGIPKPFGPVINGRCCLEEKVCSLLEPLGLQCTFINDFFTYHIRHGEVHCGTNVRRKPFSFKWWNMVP
# assay_procedure: cell-based or functional assay
Numbered stars: 1 amine (or outer) side, 2 acyl side, 3 side chain; on linkers, the order of the positions; unused ones are H or OH. Square brackets hold non-standard residues; d marks the D form. Orn(CA) = ornithine chloroamidine, O(CA), N=C(CCl)NCCC[C@H](N[*:1])C(=O)[*:2]; Orn(fluoroacetimidoyl) = N=C(CF)NCCC[C@H](N)C(=O)O
Expressed in %, but write only the number.

Ac-FFDSHKLH[Orn(fluoroacetimidoyl)]EWMWSD-NH2 (SMILES CSCC[C@H](NC(=O)[C@H](Cc1c[nH]c2ccccc12)NC(=O)[C@H](CCC(=O)O)NC(=O)[C@H](CCCNC(=N)CF)NC(=O)[C@H](Cc1c[nH]cn1)NC(=O)[C@H](CC(C)C)NC(=O)[C@H](CCCCN)NC(=O)[C@H](Cc1c[nH]cn1)NC(=O)[C@H](CO)NC(=O)[C@H](CC(=O)O)NC(=O)[C@H](Cc1ccccc1)NC(=O)[C@H](Cc1ccccc1)NC(C)=O)C(=O)N[C@@H](Cc1c[nH]c2ccccc12)C(=O)N[C@@H](CO)C(=O)N[C@@H](CC(=O)O)C(N)=O) [0741-04FA] : 28
Ac-FFDSHKFD[Orn(CA)]DFIYSD-NH2 (SMILES CC[C@H](C)[C@H](NC(=O)[C@H](Cc1ccccc1)NC(=O)[C@H](CC(=O)O)NC(=O)[C@H](CCCNC(=N)CCl)NC(=O)[C@H](CC(=O)O)NC(=O)[C@H](Cc1ccccc1)NC(=O)[C@H](CCCCN)NC(=O)[C@H](Cc1c[nH]cn1)NC(=O)[C@H](CO)NC(=O)[C@H](CC(=O)O)NC(=O)[C@H](Cc1ccccc1)NC(=O)[C@H](Cc1ccccc1)NC(C)=O)C(=O)N[C@@H](Cc1ccc(O)cc1)C(=O)N[C@@H](CO)C(=O)N[C@@H](CC(=O)O)C(N)=O) [0741-03CA] : 24
Ac-DSHKFD[Orn(fluoroacetimidoyl)]DFIYSD-NH2 (SMILES CC[C@H](C)[C@H](NC(=O)[C@H](Cc1ccccc1)NC(=O)[C@H](CC(=O)O)NC(=O)[C@H](CCCNC(=N)CF)NC(=O)[C@H](CC(=O)O)NC(=O)[C@H](Cc1ccccc1)NC(=O)[C@H](CCCCN)NC(=O)[C@H](Cc1c[nH]cn1)NC(=O)[C@H](CO)NC(=O)[C@H](CC(=O)O)NC(C)=O)C(=O)N[C@@H](Cc1ccc(O)cc1)C(=O)N[C@@H](CO)C(=O)N[C@@H](CC(=O)O)C(N)=O) [0741-05FA] : 22

Okay, next one:
Exam item: Param item = Ac-FFDSHKWH[Orn(CA)]DFFYSD-NH2 (SMILES CC(=O)N[C@@H](Cc1ccccc1)C(=O)N[C@@H](Cc1ccccc1)C(=O)N[C@@H](CC(=O)O)C(=O)N[C@@H](CO)C(=O)N[C@@H](Cc1c[nH]cn1)C(=O)N[C@@H](CCCCN)C(=O)N[C@@H](Cc1c[nH]c2ccccc12)C(=O)N[C@@H](Cc1c[nH]cn1)C(=O)N[C@@H](CCCNC(=N)CCl)C(=O)N[C@@H](CC(=O)O)C(=O)N[C@@H](Cc1ccccc1)C(=O)N[C@@H](Cc1ccccc1)C(=O)N[C@@H](Cc1ccc(O)cc1)C(=O)N[C@@H](CO)C(=O)N[C@@H](CC(=O)O)C(N)=O) [0741-02CA] ; retrieve measured conversion of 0708-30 by PAD4, 50 µM inhibitor.
Marked response: 31
